# Tested on: AMPK-alpha2
# Construct: gene PRKAA2
# Experimental parameters: concentration: 1 μM,replicates: in singlicate; n = 1;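 also: KINOMEscan kinase panel screen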
Quick list: %Inh per entry.

Molecule: C[C@@H](Oc1cc(-n2cnc3cc(-c4cnn(C)c4)ccc32)sc1C(N)=O)c1ccccc1Cl [GSK580432]
%Inh: 27%

Molecule: N#Cc1cccc(C(=O)NC2CCN(c3ccnc(Nc4ccc(F)cc4)n3)C2)c1 (stereo not shown) [GSK1379708]
%Inh: 0%

Molecule: Cc1ccc(C(=O)Nc2ccc(Oc3ccc4nc(NC(=O)C5CC5)cn4c3)c(F)c2)c(=O)n1-c1ccccc1
%Inh: 0%

Molecule: C[C@@H](Oc1cc(-n2cnc3ccc(-c4ccncc4)cc32)sc1C(N)=O)c1ccccc1Cl [GSK483724]
%Inh: 12%

Molecule: COc1cc2nccc(Nc3ccc(Oc4ccccc4)cc3)c2cc1OC.Cl [GI261656]
%Inh: 0%

Molecule: COc1cc2c(Nc3ccc(NC(=O)c4ccccc4)cc3)ncnc2cc1OCCCN1CCOCC1 [GSK301329]
%Inh: 0%

Molecule: CS(=O)(=O)Nc1ccc(-c2ccnc3[nH]ccc23)cc1 [GSK993273]
%Inh: 0%

Molecule: Cc1ccc(CC(=O)N2CCc3cc(-c4cn(C)c5ncnc(N)c45)ccc32)cc1 [GSK2634758]
%Inh: 29%

Molecule: O=c1[nH]cc(-c2ccc(O)cc2)c2sc(-c3ccncc3)cc12 [GSK1033723]
%Inh: 13%

Molecule: O=C(NOCC1CC1)c1cc(Br)c(F)c(F)c1Nc1ccc(I)cc1Cl
%Inh: 0%

Molecule: CSc1nccc(-c2c(-c3ccc(F)cc3)ncn2CCCN2CCOCC2)n1.Cl [SB-217146]
%Inh: 0%

Molecule: CN(c1ccccc1CNc1nc(Nc2ccc3c(c2)CC(=O)N3)ncc1C(F)(F)F)S(C)(=O)=O
%Inh: 70%

Molecule: O=C(Nc1n[nH]c2cc(-c3ccco3)ccc12)C1CC1 [SB-737447]
%Inh: 0%

* * *

# Test system: ABL1-phosphorylated
# Experimental parameters: concentration: 1 μM,replicates: in singlicate; n = 1

Molecule: Nc1nccc(-c2ccc3c(N)n[nH]c3c2)n1
Uom: %
%Inh: 0

Molecule: COc1cccc(OC)c1C(=O)Nc1cccc(-c2nn3ccccc3c2-c2ccnc(Nc3cccc(F)c3)n2)c1
Uom: %
%Inh: 18

Molecule: NC(=O)Nc1sc(-c2ccc(F)cc2)cc1C(N)=O
Uom: %
%Inh: 0

Molecule: CC(C)S(=O)(=O)N1CCN(Cc2ccc3c(c2)nc(NC(=O)c2ccsc2)n3C[C@H](O)c2ccccc2)CC1
Uom: %
%Inh: 2

* * *

# Test system: LIMK2
# Experimental parameters: concentration: 1 μM,replicates: in singlicate; n = 1

Molecule: CN1CCN(CCCNc2nccc(-c3c(-c4ccc(F)cc4)nn4cc(C(N)=O)ccc34)n2)CC1 [GW622475]
%Inh / %: 9

Molecule: CC(C(=O)NC1CCN(c2ccnc(Nc3ccc(F)cc3)n2)C1)c1ccc(Cl)cc1 (stereo not shown) [GSK1379713]
%Inh / %: 0

Molecule: CS(=O)(=O)c1cccc(CNc2nc(Nc3ccc4c(c3)[C@@H]3C[C@@H]4CNC3=O)ncc2C(F)(F)F)c1
%Inh / %: 0

Molecule: CC(=O)c1c(-c2ccncc2)[nH]c(-c2ccncc2)c1C [GW493036]
%Inh / %: 1
